Target: T1, puroindoline A (Triticum aestivum, UniProt P33432 29-148)
T1 construct: puroindoline A (PINA) of Triticum aestivum, purified from grain of cv; about 13 kDa, five disulfide bonds; matured by cleavages at both N- and C-termini, with forms that differ at the C-terminus; The Pina allele of cv; also called PINA; source: purified from the hard wheat Triticum aestivum cultivar Recital
T1 sequence (looked up): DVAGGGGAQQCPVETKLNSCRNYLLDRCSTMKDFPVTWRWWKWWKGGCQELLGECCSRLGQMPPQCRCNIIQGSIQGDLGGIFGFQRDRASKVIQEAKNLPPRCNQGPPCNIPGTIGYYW
Experiment: SPR; Biacore X100, CM5 chip; gliadin or (PQQPY)8 covalently immobilised, PINA flowed at 10 uL/min, 25°C, Hepes buffer pH 7.4 (10 mM Hepes, 150 mM NaCl, 3.4 mM EDTA, 0.005% P20); global kinetic fit, 1:1 Langmuir model, KD=kd/ka
Settings: both partners purified
quantity measured: pKd
Numbers only, as −log10 of the molar value.

Entry under test: PQQPYPQQPYPQQPYPQQPYPQQPYPQQPYPQQPYPQQPY (eight repeats of the pentapeptide PQQPY, written out from the printed formula (PQQPY)8; mimics the consensus repeat domain of gliadins; measured mass 4924.5 Da (theoretical 4924.3 Da); Released from thioredoxin-DP-(PQQPY)8 by formic acid; the printed theoretical mass of 4924.3 Da fits the 40 residues of eight repeats with no further residue; also called (Pro-Gln-Gln-Pro-Tyr)8; repetitive domain …) [recombinant polypeptide (PQQPY)8] . Its pKd was 6.54
